Examples of molecules with documented pIC50 follow.
Biological target: Cytochrome P450 2C9 (Homo sapiens, UniProt P11712)
Sequence (P11712 whole entry): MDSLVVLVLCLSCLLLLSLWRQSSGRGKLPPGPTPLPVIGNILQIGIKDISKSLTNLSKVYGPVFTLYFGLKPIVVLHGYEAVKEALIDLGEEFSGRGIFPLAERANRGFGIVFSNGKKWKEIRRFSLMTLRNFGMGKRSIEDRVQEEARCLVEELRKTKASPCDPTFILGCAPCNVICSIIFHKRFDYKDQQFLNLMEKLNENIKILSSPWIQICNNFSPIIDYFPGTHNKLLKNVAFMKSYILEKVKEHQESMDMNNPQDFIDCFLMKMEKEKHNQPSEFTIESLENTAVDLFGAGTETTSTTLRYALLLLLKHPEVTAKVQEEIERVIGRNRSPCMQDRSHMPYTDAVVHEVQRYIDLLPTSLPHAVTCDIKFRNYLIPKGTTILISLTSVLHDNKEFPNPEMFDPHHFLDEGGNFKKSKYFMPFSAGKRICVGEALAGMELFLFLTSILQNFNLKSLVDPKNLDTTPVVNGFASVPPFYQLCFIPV
Field pIC50 (float): negative decimal logarithm of the concentration in molar.

// worked examples, pIC50 included
# SAMPLE_SMILES, pIC50
data = [
    ("O=C(NCc1ccc(F)cc1)c1cnc(Nc2cccc(Cl)c2)nc1C(F)(F)F", 5.10),
    ("O=C(NCC1CCOCC1)c1cnc(Nc2cccc(Cl)c2)nc1C(F)(F)F", 4.74),
    ("O=C(NCC1CCC1)c1cnc(Nc2cccc(Cl)c2)nc1C(F)(F)F", 5.52),
]

Per the records, this molecule ( `O=C(NCC1CCOCC1)c1cnc(Nc2cccc(Cl)c2F)nc1C(F)(F)F` ) has pIC50 equal to 4.12

Per the records, this molecule ( `O=C(NCC1CCCC1)c1cnc(Nc2cccc(Cl)c2)nc1C(F)(F)F` ) has pIC50 equal to 5.22

Per the records, this molecule ( `O=C(NCC1CCOCC1)c1cnc(Nc2cc(Cl)ccc2F)nc1C(F)(F)F` ) has pIC50 equal to 4.43

Per the records, this molecule ( `O=C(NCC1CCOCC1)c1cnc(Nc2cc(Cl)cc(Cl)c2)nc1C(F)(F)F` ) has pIC50 equal to 4.89

Per the records, this molecule ( `O=C(NCC1CCCCC1)c1cnc(Nc2cccc(Cl)c2)nc1C(F)(F)F` ) has pIC50 equal to 5.05

Per the records, this molecule ( `O=C(NCc1ccncc1)c1cnc(Nc2cccc(Cl)c2)nc1C(F)(F)F` ) has pIC50 equal to 6.05

* * *

Consider molecules characterized by their IC50 with Cytochrome P450 2D6 (Homo sapiens, UniProt P10635).
Sequence (P10635 whole entry): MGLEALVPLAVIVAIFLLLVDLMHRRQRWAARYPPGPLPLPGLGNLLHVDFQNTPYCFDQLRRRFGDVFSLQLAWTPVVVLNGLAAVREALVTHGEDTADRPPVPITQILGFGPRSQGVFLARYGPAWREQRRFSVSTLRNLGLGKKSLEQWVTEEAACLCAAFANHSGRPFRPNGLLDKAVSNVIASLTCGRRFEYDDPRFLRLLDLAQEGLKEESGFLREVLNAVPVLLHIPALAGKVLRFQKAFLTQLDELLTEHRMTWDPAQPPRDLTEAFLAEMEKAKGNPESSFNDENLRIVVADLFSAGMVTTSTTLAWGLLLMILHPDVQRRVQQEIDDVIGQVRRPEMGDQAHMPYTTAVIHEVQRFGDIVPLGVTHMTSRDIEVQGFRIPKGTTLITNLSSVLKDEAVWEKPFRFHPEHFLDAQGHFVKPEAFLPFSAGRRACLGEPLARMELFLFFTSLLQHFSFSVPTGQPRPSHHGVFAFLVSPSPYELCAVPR
// units = µM; emit number, no label

# SAMPLE_SMILES, UNIT_NAME, IC50
measured = [
    ("O=C(NCC1CCC1)c1cnc(Nc2cccc(Cl)c2)nc1C(F)(F)F", "µM", 22),
]

Moving on to another molecule below.
Per the records, this molecule ( `O=C(NCC1CCOCC1)c1cnc(Nc2cc(F)cc(F)c2)nc1C(F)(F)F` ) has IC50 equal to 45

* * *

Biological target: Cannabinoid receptor 2 (Homo sapiens)
Sequence (P34972 whole entry): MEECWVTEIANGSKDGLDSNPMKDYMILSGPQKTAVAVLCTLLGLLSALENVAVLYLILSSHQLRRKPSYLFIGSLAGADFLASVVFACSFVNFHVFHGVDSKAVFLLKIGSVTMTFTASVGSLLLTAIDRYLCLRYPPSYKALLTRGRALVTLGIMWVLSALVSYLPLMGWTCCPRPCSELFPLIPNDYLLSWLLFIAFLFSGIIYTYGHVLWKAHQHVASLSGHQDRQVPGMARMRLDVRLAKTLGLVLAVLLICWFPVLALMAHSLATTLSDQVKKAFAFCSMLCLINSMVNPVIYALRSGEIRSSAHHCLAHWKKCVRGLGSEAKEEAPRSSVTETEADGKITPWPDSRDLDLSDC
Assay: Efficacy at human recombinant CB2 receptor expressed in Saccharomyces cerevisiae cells relative to HU210
Assay type: cell-based
Param threshold (80%) applies to Efficacy; output YES when value >= threshold, NO when value < threshold.

# COMPOUND, CLASS_NAME
rows = [
    ("O=C(NCc1ccncc1)c1cnc(Nc2cccc(Cl)c2)nc1C(F)(F)F", "YES"),
]

Please tell me: is the compound O=C(NCC1CCOCC1)c1cnc(Nc2ccc(Cl)cc2Cl)nc1C(F)(F)F [GW842166X] at or over 80% in terms of Efficacy?
YES

Please tell me: is the compound `O=C(NCc1ccc(Cl)cc1)c1cnc(Nc2cccc(Cl)c2)nc1C(F)(F)F` at or over 80% in terms of Efficacy?
NO

Please tell me: is the compound `O=C(NCC1CCOCC1)c1cnc(Nc2cc(Cl)cc(Cl)c2)nc1C(F)(F)F` at or over 80% in terms of Efficacy?
YES

Please tell me: is the compound `N#Cc1ccc(Nc2ncc(C(=O)NCc3ccccc3)c(C(F)(F)F)n2)cc1` at or over 80% in terms of Efficacy?
NO

Please tell me: is the compound `O=C(NCC1CCOCC1)c1cnc(Nc2ccc(Cl)c(Cl)c2)nc1C(F)(F)F` at or over 80% in terms of Efficacy?
YES

Please tell me: is the compound `O=C(NCC1CCOCC1)c1cnc(Nc2cc(F)cc(F)c2)nc1C(F)(F)F` at or over 80% in terms of Efficacy?
YES
